# system-name: T1, SND1-NLuc
# T1 chain: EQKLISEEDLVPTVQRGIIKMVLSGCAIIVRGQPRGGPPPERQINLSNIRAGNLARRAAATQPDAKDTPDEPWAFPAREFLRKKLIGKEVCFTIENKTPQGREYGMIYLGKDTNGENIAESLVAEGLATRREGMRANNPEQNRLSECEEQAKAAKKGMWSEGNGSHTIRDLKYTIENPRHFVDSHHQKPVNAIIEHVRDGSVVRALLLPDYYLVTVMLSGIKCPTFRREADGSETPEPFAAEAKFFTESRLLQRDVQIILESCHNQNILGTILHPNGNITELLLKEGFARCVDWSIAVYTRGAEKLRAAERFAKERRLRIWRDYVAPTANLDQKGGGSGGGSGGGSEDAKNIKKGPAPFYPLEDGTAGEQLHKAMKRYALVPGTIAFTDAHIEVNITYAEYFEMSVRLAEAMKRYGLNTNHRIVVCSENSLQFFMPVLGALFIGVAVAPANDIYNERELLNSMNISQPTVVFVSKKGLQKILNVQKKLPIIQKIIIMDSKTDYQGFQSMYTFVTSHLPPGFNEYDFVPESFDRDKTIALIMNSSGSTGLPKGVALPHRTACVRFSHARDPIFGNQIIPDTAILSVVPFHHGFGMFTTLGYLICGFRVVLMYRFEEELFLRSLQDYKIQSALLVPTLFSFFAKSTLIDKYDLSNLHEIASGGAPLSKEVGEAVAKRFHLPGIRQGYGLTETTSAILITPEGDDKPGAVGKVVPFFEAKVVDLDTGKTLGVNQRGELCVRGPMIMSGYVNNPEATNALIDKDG
# protocol-text: split-luciferase assay (inhibition of SND1-NLuc/CLuc-MTDH interaction)
measured-parameter: IC50

PNSDWNAPAEEWGNW (also called MTDH-WT peptide; Pep-WT) [wild type MTDH (MTDH-WT) minimal peptide] :: 1.2 µM
